Target: hNav1.5 sodium channels (Homo sapiens, UniProt Q14524)
Construct: expressed in transfected cells; host or cells: CHO cells
Sequence (Q14524 whole entry): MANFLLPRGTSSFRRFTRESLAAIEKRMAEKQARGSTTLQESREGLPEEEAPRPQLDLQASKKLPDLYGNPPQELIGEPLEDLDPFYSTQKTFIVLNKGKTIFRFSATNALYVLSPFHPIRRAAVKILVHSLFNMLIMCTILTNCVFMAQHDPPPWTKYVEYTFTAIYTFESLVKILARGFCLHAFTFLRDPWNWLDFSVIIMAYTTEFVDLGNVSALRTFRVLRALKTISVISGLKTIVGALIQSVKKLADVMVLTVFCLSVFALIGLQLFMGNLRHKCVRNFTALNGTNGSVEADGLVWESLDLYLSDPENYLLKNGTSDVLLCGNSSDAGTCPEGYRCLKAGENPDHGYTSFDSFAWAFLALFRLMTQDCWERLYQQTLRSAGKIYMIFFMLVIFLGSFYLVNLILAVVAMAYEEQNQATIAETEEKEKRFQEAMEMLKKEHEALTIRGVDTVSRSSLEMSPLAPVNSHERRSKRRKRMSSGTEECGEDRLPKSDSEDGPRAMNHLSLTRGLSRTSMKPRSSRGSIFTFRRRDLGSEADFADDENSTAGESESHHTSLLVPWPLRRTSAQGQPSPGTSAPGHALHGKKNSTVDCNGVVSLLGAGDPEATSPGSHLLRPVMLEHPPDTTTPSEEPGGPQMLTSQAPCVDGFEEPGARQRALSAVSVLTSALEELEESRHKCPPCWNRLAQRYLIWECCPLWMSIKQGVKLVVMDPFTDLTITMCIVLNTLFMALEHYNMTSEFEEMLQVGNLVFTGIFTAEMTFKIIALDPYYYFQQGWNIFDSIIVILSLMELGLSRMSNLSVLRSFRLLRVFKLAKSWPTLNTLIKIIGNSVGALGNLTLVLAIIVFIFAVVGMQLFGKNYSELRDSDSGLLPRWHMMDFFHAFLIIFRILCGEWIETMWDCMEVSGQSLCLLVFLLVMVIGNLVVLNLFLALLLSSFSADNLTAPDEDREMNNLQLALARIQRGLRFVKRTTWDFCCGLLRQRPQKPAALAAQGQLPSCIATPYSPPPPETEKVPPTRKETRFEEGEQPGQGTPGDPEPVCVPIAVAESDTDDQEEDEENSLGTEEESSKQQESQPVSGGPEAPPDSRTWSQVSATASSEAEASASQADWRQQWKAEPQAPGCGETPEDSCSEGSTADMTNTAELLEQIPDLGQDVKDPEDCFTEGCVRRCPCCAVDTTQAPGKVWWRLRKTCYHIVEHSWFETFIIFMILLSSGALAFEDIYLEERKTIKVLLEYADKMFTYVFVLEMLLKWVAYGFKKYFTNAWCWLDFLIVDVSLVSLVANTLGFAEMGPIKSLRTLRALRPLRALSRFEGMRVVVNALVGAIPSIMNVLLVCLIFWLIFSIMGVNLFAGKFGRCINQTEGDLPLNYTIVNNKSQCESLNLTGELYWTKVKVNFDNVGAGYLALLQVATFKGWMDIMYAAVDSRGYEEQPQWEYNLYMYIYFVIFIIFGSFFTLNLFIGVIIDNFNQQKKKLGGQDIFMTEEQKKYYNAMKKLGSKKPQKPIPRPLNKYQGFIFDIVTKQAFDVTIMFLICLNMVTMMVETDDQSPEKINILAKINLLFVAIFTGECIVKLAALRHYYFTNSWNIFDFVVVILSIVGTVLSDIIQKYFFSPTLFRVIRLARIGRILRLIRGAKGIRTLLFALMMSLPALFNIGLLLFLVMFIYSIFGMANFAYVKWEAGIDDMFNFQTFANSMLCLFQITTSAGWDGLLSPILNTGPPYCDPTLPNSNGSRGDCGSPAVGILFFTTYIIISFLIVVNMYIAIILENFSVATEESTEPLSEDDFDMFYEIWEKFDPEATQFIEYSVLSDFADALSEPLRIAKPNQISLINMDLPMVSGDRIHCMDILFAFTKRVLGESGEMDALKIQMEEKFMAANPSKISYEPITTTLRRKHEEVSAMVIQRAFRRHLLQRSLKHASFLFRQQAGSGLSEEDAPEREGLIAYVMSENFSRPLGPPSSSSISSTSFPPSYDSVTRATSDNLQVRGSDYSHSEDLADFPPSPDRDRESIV
Assay: hNav1.5 sodium channel automated patch clamp
Type: cell-based
Settings: phasic block, CHO cells, read-out: Nav1.5 phasic ion channel inhibition
Outcome Measure: inhibition at 10 µM (%)
Express your answer in %, writing the number without its unit.

CCCCc1oc2ccccc2c1C(=O)c1cc(C(F)(F)F)c(OCCN(CC)CC)c(C(F)(F)F)c1 = 26
CCCCc1oc2ccccc2c1C(=O)c1ccc(OCCN(CC)CC)c(C(F)(F)F)c1 = 86

Looking for the measured inhibition at 10 µM of CCCCc1oc2ccccc2c1C(=O)c1cc(I)c(OCCN(CC)CC)c(I)c1 [Amiodarone, reference compound] , can you help? 44

Looking for the measured inhibition at 10 µM of CCCCc1oc2ccccc2c1C(=O)c1cc(I)c(OCCN(CC)CC)c(C(F)(F)F)c1 , can you help? 44

* * *

Overview of reported inhibition at 10 µM across a group of molecules:
Target: hKvLQT1/hminK potassium channels (Homo sapiens)
Construct: expressed in transfected cells; host or cells: CHO cells
Assay: hKvLQT1/hminK potassium channel automated patch clamp
Format: cell-based
Details: CHO cells, read-out: KvLQT ion channel inhibition
Experimental: Compounds of the present invention were tested for their anti-arrhythmic activity in a series of in vitro cardiac ion channel assays using cloned human channels expressed in CHO cells or HEK293 cells: • 1. […] Onset and steady state block of hKvLQT1/hminK current was measured using a pulse pattern with fixed amplitudes (depolarization: +40 mV for 2 s; repolarization: −40 mV for 0.5 s) repeated at 15 s intervals from a holding potential of −80 mV. […]
Express your answer in %, writing the number without its unit.

CCCCc1oc2ccccc2c1C(=O)c1ccc(OCCN(CC)CC)c(C(F)(F)F)c1 = 8.4
CCCCc1oc2ccccc2c1C(=O)c1cc(C(F)(F)F)c(OCCN(CC)CC)c(C(F)(F)F)c1 = 49
CCCCc1oc2ccccc2c1C(=O)c1cc(I)c(OCCN(CC)CC)c(C(F)(F)F)c1 = 2.5

# query: inhibition at 10 µM | item CCCCc1oc2ccccc2c1C(=O)c1cc(I)c(OCCN(CC)CC)c(I)c1 [Amiodarone, reference compound] | system: hKvLQT1/hminK potassium channels (Homo sapiens) -0.6

* * *

Molecular target: hKir3.1/hKir3.4 potassium channels (Homo sapiens, UniProt P48544+P48549)
Construct: expressed in transfected cells; host or cells: HEK293 cells
Sequence (P48549 whole entry): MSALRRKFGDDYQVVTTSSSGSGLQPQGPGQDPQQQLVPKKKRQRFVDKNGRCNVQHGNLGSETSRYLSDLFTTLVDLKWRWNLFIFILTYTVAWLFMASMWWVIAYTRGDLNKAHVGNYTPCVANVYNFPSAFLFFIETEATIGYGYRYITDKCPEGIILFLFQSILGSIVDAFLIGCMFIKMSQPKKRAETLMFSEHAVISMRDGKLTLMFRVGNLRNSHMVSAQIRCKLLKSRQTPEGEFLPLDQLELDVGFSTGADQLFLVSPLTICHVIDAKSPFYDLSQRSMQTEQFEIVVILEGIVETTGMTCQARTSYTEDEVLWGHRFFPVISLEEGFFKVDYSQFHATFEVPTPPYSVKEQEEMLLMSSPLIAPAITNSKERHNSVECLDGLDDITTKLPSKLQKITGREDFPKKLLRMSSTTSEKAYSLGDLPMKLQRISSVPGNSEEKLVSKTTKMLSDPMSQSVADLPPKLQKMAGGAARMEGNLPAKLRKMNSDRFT
Sequence (P48544 whole entry): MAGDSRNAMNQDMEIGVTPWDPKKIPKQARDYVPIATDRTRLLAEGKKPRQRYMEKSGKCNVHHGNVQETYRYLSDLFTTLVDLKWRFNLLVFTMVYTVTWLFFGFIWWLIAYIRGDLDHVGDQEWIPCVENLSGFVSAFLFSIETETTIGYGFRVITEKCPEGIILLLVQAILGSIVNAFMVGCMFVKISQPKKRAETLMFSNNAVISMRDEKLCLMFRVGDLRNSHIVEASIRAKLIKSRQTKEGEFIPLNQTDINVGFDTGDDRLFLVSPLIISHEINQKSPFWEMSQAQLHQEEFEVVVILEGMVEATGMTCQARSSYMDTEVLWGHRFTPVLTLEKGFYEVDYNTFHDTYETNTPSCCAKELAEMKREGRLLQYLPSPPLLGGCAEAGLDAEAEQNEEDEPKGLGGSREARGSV
Test: hKir3.1/hKir3.4 potassium channel automated patch clamp
Assay type: cell-based
Details: @ 10 μM; HEK293 cells; read-out: K(ach) ion channel inhibition
Outcome Measure: inhibition at 10 µM (%)
Express your answer in %, writing the number without its unit.

CCCCc1oc2ccccc2c1C(=O)c1cc(C(F)(F)F)c(OCCN(CC)CC)c(C(F)(F)F)c1 = 49
CCCCc1oc2ccccc2c1C(=O)c1ccc(OCCN(CC)CC)c(C(F)(F)F)c1 = 11
CCCCc1oc2ccccc2c1C(=O)c1cc(I)c(OCCN(CC)CC)c(C(F)(F)F)c1 = 4.6

Consider the record given below.
Looking for the measured inhibition at 10 µM of CCCCc1oc2ccccc2c1C(=O)c1cc(I)c(OCCN(CC)CC)c(I)c1 [Amiodarone, reference compound] , can you help? 23

* * *

Target: hKv1.5 potassium channels (Homo sapiens, UniProt P22460)
Construct: expressed in transfected cells; host or cells: CHO cells
Sequence (P22460 whole entry): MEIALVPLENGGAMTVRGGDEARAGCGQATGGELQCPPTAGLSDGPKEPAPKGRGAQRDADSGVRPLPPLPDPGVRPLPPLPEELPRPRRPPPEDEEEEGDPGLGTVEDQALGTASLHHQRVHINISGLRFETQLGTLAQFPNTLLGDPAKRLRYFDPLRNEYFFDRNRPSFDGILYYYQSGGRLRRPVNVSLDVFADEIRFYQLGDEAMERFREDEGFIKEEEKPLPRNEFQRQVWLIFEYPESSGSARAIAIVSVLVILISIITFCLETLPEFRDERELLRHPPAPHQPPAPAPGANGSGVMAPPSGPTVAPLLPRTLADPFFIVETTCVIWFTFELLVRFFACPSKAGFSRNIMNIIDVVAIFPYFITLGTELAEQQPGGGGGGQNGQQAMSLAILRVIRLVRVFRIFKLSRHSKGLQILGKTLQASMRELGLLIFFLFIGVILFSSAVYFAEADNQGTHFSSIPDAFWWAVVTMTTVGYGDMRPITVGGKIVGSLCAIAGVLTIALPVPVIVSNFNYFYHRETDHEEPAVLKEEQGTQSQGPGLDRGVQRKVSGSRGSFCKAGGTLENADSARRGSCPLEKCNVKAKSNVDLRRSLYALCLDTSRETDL
Assay: hKv1.5 potassium channel automated patch clamp
Assay type: cell-based
Conditions: CHO cells, read-out: Kv1.5 ion channel inhibition
Overview of reported inhibition at 10 µM across a group of compounds:
Answer by giving the amount and then stating its unit.

Example entries begin here.
CCCCc1oc2ccccc2c1C(=O)c1cc(C(F)(F)F)c(OCCN(CC)CC)c(C(F)(F)F)c1 [Compound 1] = 54%
CCCCc1oc2ccccc2c1C(=O)c1cc(I)c(OCCN(CC)CC)c(I)c1 [Amiodarone, reference compound] = 0.7%
CCCCc1oc2ccccc2c1C(=O)c1ccc(OCCN(CC)CC)c(C(F)(F)F)c1 [Compound 3] = 25%

Consider the record given below.
Looking for the measured inhibition at 10 µM of CCCCc1oc2ccccc2c1C(=O)c1cc(I)c(OCCN(CC)CC)c(C(F)(F)F)c1 [Compound 2] , can you help? 21%

* * *

Target: hERG potassium channel (KCNH2, IKr) (Homo sapiens, UniProt Q12809)
Construct: expressed in transfected cells; host or cells: HEK293 cells
Sequence (Q12809 whole entry): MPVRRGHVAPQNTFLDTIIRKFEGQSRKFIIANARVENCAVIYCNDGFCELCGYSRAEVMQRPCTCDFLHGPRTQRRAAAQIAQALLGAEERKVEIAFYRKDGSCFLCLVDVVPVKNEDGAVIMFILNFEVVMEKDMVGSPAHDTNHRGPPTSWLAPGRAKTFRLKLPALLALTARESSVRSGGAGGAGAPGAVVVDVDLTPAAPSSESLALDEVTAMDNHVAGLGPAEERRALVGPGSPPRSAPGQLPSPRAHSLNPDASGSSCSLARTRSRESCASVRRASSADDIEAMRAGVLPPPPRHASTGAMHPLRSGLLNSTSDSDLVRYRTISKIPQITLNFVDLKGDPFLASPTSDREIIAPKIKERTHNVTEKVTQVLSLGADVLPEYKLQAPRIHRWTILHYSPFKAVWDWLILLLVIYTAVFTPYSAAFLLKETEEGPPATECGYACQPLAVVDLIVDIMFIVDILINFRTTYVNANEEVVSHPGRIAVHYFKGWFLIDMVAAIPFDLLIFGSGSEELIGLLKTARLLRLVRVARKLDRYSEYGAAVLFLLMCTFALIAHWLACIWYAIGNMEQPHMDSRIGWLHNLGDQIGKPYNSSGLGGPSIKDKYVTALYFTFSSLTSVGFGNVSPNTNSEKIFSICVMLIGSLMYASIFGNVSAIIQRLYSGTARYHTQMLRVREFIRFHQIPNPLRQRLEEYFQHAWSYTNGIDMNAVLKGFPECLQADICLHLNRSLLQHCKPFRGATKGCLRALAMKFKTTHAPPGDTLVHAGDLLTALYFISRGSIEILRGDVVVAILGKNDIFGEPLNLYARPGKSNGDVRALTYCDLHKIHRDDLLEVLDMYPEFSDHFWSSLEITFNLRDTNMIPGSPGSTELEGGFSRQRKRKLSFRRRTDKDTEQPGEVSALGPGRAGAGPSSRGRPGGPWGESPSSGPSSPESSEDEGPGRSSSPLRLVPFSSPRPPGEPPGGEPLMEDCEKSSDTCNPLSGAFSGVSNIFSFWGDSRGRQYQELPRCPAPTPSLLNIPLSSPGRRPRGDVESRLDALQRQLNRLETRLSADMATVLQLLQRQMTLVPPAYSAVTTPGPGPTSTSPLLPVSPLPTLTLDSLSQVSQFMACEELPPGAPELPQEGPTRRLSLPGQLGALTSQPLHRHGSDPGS
Test: hERG potassium channel automated patch clamp
Type: cell-based
Details: HEK293 cells expressing cloned hERG potassium channels, read-out: hERG ion channel inhibition
Overview of reported inhibition at 3 min, 10 µM across a group of compounds:
Express your answer in %, writing the number without its unit.

Example entries begin here.
CCCCc1oc2ccccc2c1C(=O)c1ccc(OCCN(CC)CC)c(C(F)(F)F)c1 = 74
CCCCc1oc2ccccc2c1C(=O)c1cc(C(F)(F)F)c(OCCN(CC)CC)c(C(F)(F)F)c1 = 55

Looking for the measured inhibition at 3 min, 10 µM of CCCCc1oc2ccccc2c1C(=O)c1cc(I)c(OCCN(CC)CC)c(C(F)(F)F)c1 , can you help? 75

* * *

Target: hKir3.1/hKir3.4 potassium channels (Homo sapiens, UniProt P48544+P48549)
Construct: expressed in transfected cells; host or cells: HEK293 cells
Assay: hKir3.1/hKir3.4 potassium channel automated patch clamp
Assay type: cell-based
Details: @ 1 μM; HEK293 cells; read-out: K(ach) @ 1 μM ion channel inhibition
Outcome Measure: inhibition at 1 µM
Answer by giving the amount and then stating its unit.

Example entries begin here.
CCCCc1oc2ccccc2c1C(=O)c1ccc(OCCN(CC)CC)c(C(F)(F)F)c1 [Compound 3] = 2.1%
CCCCc1oc2ccccc2c1C(=O)c1cc(I)c(OCCN(CC)CC)c(I)c1 [Amiodarone, reference compound] = 4.5%
CCCCc1oc2ccccc2c1C(=O)c1cc(C(F)(F)F)c(OCCN(CC)CC)c(C(F)(F)F)c1 [Compound 1] = 16%

Consider the record given below.
Looking for the measured inhibition at 1 µM of CCCCc1oc2ccccc2c1C(=O)c1cc(I)c(OCCN(CC)CC)c(C(F)(F)F)c1 [Compound 2] , can you help? 1.4%

* * *

Overview of reported inhibition at 10 µM across a group of compounds:
Molecular target: hCav1.2/β2/α2δ channels (Homo sapiens)
Construct: expressed in transfected cells; host or cells: CHO cells
Assay: hCav1.2 L-type calcium channel automated patch clamp
Assay type: cell-based
Settings: CHO cells, read-out: Cav1.2 ion channel inhibition
Answer by giving the amount and then stating its unit.

CCCCc1oc2ccccc2c1C(=O)c1ccc(OCCN(CC)CC)c(C(F)(F)F)c1 = 2%

# query: inhibition at 10 µM | item CCCCc1oc2ccccc2c1C(=O)c1cc(I)c(OCCN(CC)CC)c(I)c1 [Amiodarone, reference compound] | system: hCav1.2/β2/α2δ channels (Homo sapiens) 7.7%

# query: inhibition at 10 µM | item CCCCc1oc2ccccc2c1C(=O)c1cc(I)c(OCCN(CC)CC)c(C(F)(F)F)c1 | system: hCav1.2/β2/α2δ channels (Homo sapiens) 81%

# query: inhibition at 10 µM | item CCCCc1oc2ccccc2c1C(=O)c1cc(C(F)(F)F)c(OCCN(CC)CC)c(C(F)(F)F)c1 | system: hCav1.2/β2/α2δ channels (Homo sapiens) 101%

* * *

Overview of reported inhibition at 10 µM across a group of compounds:
Target: hKir2.1 potassium channels (Homo sapiens)
Construct: expressed in transfected cells; host or cells: HEK293 cells
Assay: hKir2.1 potassium channel automated patch clamp
Type: cell-based
Settings: HEK293 cells, read-out: Kir2.1 ion channel inhibition
Method: Compounds of the present invention were tested for their anti-arrhythmic activity in a series of in vitro cardiac ion channel assays using cloned human channels expressed in CHO cells or HEK293 cells: • 1. […] Onset and steady state block of hKir2.1 current was measured using a pulse pattern with fixed amplitudes (hyperpolarization: −110 mV amplitude, 300 ms duration) repeated at 10 s intervals from a holding potential of −70 mV. Current amplitude was measured at the end of the step to −110 mV.
Express your answer in %, writing the number without its unit.

Example entries begin here.
CCCCc1oc2ccccc2c1C(=O)c1cc(I)c(OCCN(CC)CC)c(I)c1 [Amiodarone, reference compound] = 0.9
CCCCc1oc2ccccc2c1C(=O)c1cc(C(F)(F)F)c(OCCN(CC)CC)c(C(F)(F)F)c1 [Compound 1] = 0.3
CCCCc1oc2ccccc2c1C(=O)c1cc(I)c(OCCN(CC)CC)c(C(F)(F)F)c1 [Compound 2] = 2.7

Looking for the measured inhibition at 10 µM of CCCCc1oc2ccccc2c1C(=O)c1ccc(OCCN(CC)CC)c(C(F)(F)F)c1 [Compound 3] , can you help? 9.7

These data points were gathered from patent US9895340B2.
